Reported pIC50 values follow for various compounds
Target: NLRP3 (Homo sapiens, UniProt Q96P20)
Sequence (Q96P20 whole entry): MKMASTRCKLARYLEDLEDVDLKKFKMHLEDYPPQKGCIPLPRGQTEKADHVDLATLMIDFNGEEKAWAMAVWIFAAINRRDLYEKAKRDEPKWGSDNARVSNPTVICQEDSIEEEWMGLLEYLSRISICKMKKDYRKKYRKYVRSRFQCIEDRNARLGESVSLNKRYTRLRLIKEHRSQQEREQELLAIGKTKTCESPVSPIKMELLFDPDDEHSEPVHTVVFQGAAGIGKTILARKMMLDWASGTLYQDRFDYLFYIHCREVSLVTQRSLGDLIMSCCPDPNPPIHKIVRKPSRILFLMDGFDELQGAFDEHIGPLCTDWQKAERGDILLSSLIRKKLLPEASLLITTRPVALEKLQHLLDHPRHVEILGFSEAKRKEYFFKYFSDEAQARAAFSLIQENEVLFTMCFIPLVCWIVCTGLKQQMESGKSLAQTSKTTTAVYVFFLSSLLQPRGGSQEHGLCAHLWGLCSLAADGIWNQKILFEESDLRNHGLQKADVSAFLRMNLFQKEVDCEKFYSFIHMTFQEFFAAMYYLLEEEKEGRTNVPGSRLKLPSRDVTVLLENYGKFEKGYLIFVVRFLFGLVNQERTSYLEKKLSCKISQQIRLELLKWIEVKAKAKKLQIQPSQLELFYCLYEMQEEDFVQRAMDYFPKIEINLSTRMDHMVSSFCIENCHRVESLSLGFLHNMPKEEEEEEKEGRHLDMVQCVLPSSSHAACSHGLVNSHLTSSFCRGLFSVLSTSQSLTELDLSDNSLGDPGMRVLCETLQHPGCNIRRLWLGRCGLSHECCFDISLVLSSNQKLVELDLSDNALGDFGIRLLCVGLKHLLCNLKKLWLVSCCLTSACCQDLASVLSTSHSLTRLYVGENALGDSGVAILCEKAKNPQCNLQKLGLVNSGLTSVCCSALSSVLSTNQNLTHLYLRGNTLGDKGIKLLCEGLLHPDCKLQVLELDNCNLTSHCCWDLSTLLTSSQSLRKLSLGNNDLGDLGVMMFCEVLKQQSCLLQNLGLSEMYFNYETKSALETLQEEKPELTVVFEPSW
Test: THP-1 cell-based NLRP3 activation assay
Details: PMA-differentiated THP-1 cells, LPS 100 ng/mL then 10 μM nigericin
pIC50: −log10 of the molar value.

[[record]]
compound = "CN(C(=O)c1ccc(-c2cccc(F)c2)c(OC2CC2)c1)[C@@H](CCO)c1cncc2cn[nH]c12 [Compound 011]"
assayed_system = "NLRP3 (Homo sapiens, UniProt Q96P20)"
reported_endpoint = "pIC50"
result = "4.82 to 6.00"

[[record]]
compound = "CCOc1cc(C(=O)N(C)[C@H](CC[N+](C)(C)[O-])c2cncc3cn[nH]c23)ccc1-c1cccc(Cl)c1 [Compound 163]"
assayed_system = "NLRP3 (Homo sapiens, UniProt Q96P20)"
reported_endpoint = "pIC50"
result = "> 7.00"

[[record]]
compound = "CCOc1cc(C(=O)N(C)[C@@H](CCN(C)C)c2ccc(C)c3cn[nH]c23)ccc1-c1cccc(F)c1 [Compound 201]"
assayed_system = "NLRP3 (Homo sapiens, UniProt Q96P20)"
reported_endpoint = "pIC50"
result = "6.30 to 7.00"

[[record]]
compound = "CCOc1cc(C(=O)N(C)[C@H](CO)c2cnc(CC)c3cn[nH]c23)ccc1-c1cc(C)cc(F)c1 [Compound 032]"
assayed_system = "NLRP3 (Homo sapiens, UniProt Q96P20)"
reported_endpoint = "pIC50"
result = "6.30 to 7.00"

[[record]]
compound = "CCOc1cc(C(=O)N(C)[C@H](CCN2CCC2)c2cccc3cn[nH]c23)ccc1-c1cccc(F)c1 [Compound 217]"
assayed_system = "NLRP3 (Homo sapiens, UniProt Q96P20)"
reported_endpoint = "pIC50"
result = "> 7.00"

[[record]]
compound = "CCOc1cc(C(=O)N(Cc2cncc3cn[nH]c23)[C@H]2C[C@@H](N)C2)ccc1-c1cccc(C#N)c1 [Compound 289]"
assayed_system = "NLRP3 (Homo sapiens, UniProt Q96P20)"
reported_endpoint = "pIC50"
result = "> 7.00"

[[record]]
compound = "CCOc1cc(C(=O)N(C)[C@@H](CCN)c2cnc(C)c3cn[nH]c23)ccc1C [Compound 299]"
assayed_system = "NLRP3 (Homo sapiens, UniProt Q96P20)"
reported_endpoint = "pIC50"
result = "4.82 to 6.00"

[[record]]
compound = "CCOc1cc(C(=O)N(CCNC)Cc2cncc3cn[nH]c23)ccc1-c1cccc(F)c1 [Compound 116]"
assayed_system = "NLRP3 (Homo sapiens, UniProt Q96P20)"
reported_endpoint = "pIC50"
result = "> 7.00"


What measured pIC50 is associated with CCOc1cc(C(=O)N(CCO)Cc2cnc(NC)c3cn[nH]c23)ccc1-c1cccc(Cl)c1 [Compound 049] on NLRP3 (Homo sapiens, UniProt Q96P20)?
> 7.00

What measured pIC50 is associated with CCOc1cc(C(=O)N(C)[C@@H](c2cncc3cn[nH]c23)C2CN(C)C2)ccc1-c1cccc(C#N)c1 [Compound 143] on NLRP3 (Homo sapiens, UniProt Q96P20)?
> 7.00

What measured pIC50 is associated with CCOc1cc(C(=O)N(CCO)Cc2cncc3cn[nH]c23)ccc1-c1cccc(Cl)c1 [Compound 042] on NLRP3 (Homo sapiens, UniProt Q96P20)?
> 7.00

What measured pIC50 is associated with CCOc1cc(C(=O)N(C)[C@@H](CCN(C)C)c2cccc3cn[nH]c23)ccc1-c1ccccc1 [Compound 212] on NLRP3 (Homo sapiens, UniProt Q96P20)?
> 7.00

What measured pIC50 is associated with CCOc1cc(C(=O)N(C)[C@@H](c2cccc3cn[nH]c23)C2CN(C)C2)ccc1-c1cccc(Cl)c1 [Compound 282] on NLRP3 (Homo sapiens, UniProt Q96P20)?
> 7.00

What measured pIC50 is associated with CN(C)CC[C@H](c1cncc2cn[nH]c12)N(C)C(=O)c1ccc(-c2cccc(Cl)c2)c(OC2CC2)c1 [Compound 102] on NLRP3 (Homo sapiens, UniProt Q96P20)?
> 7.00

What measured pIC50 is associated with CCOc1cc(C(=O)N(C)[C@H](CCNC)c2cncc3cn[nH]c23)ccc1-c1cc(F)cc(C#N)c1 [Compound 280] on NLRP3 (Homo sapiens, UniProt Q96P20)?
> 7.00

Data provenance is patent US12509459B2.
